# assayedTarget: human GLP-1 receptor (human, UniProt P43220 24-463)
# assayName: cell-based or functional assay
Starred links: 1 amine or outer side, 2 acyl side, 3 side chain; linkers in the order of their positions; H or OH if unused. Non-standard residues stand in square brackets, D forms with d. Groups on a side chain read outwards from the residue. No end group written: not given here. *: point of attachment. C20 diacid = O=C(O)CCCCCCCCCCCCCCCCCCC(=O)*; γGlu = O=C(O)[C@H](CCC(=O)[*:2])N[*:1]; εLys = N[C@@H](CCCCN[*:1])C(=O)[*:2]; Aib = CC(C)(N)C(=O)O
quantity: EC50, CreLuc assay, 100% hP (nM)
Give the value, in units of nM, as a plain number.

// query EC50, CreLuc assay, 100% hP value for entry YXEGTFTSDYSIXLEKEKQXAFVEWLIKGGPSSGASLRHYYNWLTRQRY (Aib at 2, 13, 20; K28 side chain: C20DA-gGlu-gGlu-gGlu-gGlu-gGlu-gGlu-eLys; C-terminal NH2) [Compound 69]
27.8

// query EC50, CreLuc assay, 100% hP value for entry Y[Aib]EGTFTSDYSI[Aib]LEKQAQ[Aib]AFVEWLIK([εLys-Glu-γGlu-γGlu-γGlu-γGlu-C20 diacid])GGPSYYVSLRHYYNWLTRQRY-NH2 (also: TFA salt) [Compound 75]
23.9

// query EC50, CreLuc assay, 100% hP value for entry YXEGTFTSDYSIXLEKQAQXAFVEWLIKGGPSSGADLRHYLNWLTRQRY (Aib at 2, 13, 20; K28 side chain: C20DA-gGlu-gGlu-gGlu-gGlu-gGlu-gGlu-eLys; C-terminal NH2) [Compound 72]
2.87
